Here the recorded glycan array binding signal (z-score) is given for each entry.
- measured on: Gal6S(b1-3)GlcNAc6S
- protocol: glycan array binding signal (z-score within array); higher = stronger binding
- measurement setup: glycan notation: IUPAC condensed, linker removed
About 410 targets per protein were measured; listed, in parts, are those with the strongest signals and a random draw of the rest.
Write the value as a bare number.

Before answering, review these 2 worked examples.
MFG-E8 (Homo sapiens), Q08431 (protein) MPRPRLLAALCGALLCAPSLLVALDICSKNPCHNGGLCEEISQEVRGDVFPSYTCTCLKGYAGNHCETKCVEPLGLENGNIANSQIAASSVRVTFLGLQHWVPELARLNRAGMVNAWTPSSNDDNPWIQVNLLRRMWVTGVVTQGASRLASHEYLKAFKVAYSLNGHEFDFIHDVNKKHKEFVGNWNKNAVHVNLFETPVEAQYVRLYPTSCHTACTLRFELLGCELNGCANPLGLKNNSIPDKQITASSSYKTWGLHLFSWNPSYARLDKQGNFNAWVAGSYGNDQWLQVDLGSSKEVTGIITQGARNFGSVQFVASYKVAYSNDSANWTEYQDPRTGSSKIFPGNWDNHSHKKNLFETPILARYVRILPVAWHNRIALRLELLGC | 3.63
PpFlo1 (Pichia pastoris) (protein) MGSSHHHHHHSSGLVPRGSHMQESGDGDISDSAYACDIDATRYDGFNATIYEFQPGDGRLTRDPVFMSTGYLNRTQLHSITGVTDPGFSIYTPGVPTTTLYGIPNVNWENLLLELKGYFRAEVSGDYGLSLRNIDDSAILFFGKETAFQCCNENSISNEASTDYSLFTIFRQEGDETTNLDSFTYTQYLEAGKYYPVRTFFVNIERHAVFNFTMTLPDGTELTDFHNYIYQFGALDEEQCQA | 2.66

Record Clrb (Mus musculus) (protein) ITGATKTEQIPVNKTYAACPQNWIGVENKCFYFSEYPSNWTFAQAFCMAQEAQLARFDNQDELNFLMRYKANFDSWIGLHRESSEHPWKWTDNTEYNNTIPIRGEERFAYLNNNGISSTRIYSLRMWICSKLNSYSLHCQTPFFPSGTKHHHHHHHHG , field glycan array binding signal (z-score): -0.357

Recorded values, source the supplement of paper PMC8728848.
